Test system: Magnaporthe grisea
Assay: whole plant or invertebrate
Type: in vivo
Conditions: Pyricularia oryzae, in Oryza sativa, read-out: control value, Test A (blast on rice)
Parameter: pest or weed control at 250 µg/mL

1. CCn1c(-c2c(F)cc(F)cc2F)c(-n2cc(Cl)cn2)cc(OC)c1=O < 50%
2. CCn1c(-c2ccc(F)cc2F)c(-n2cc(C)cn2)cc(Br)c1=O > 50%
3. C#CCOc1cc(F)c(-c2c(-n3cc(Cl)cn3)cc(Cl)c(=O)n2CC)c(F)c1 > 50%

Shifting focus to the compound that follows.
Field pest or weed control at 250 µg/mL (Magnaporthe grisea), entry CCn1c(-c2c(F)cc(F)cc2F)c(-n2cc(Cl)cn2)cc(C)c1=O : > 50%

====

Tested on: Botrytis cinerea
Test: Test Example B: Gray mold on tomato
Type: in vivo
Details: Table 7, Test B, read-out: control value, Test B (gray mold on tomato)
Parameter: pest or weed control at 250 µg/mL

1. C=CCOc1cc(F)c(-c2c(-n3cc(Cl)cn3)cc(Cl)c(=O)n2CC)c(F)c1 > 50%
2. CCn1c(-c2ccc(F)cc2F)c(-n2ncc(C)c2Cl)cc(Br)c1=O > 50%
3. CCn1c(-c2c(F)cc(F)cc2F)c(-n2cc(Cl)cn2)cc(C=O)c1=O < 50%

Shifting focus to the compound that follows.
Field pest or weed control at 250 µg/mL (Botrytis cinerea), entry CCn1c(-c2c(F)cc(OCCOC)cc2F)c(-n2cc(Cl)cn2)cc(Cl)c1=O : > 50%

====

Tested on: Magnaporthe grisea
Test: whole plant or invertebrate
Type: in vivo
Conditions: Pyricularia oryzae, in Oryza sativa, read-out: Test A control value
Listing of recorded pest or weed control at 250 µg/mL by entry.

Sample answers from the record:
Molecule	pest or weed control at 250 µg/mL
CCn1c(-c2c(F)cc(F)cc2F)c(-n2cncn2)cc(Cl)c1=O [compound 34]	> 50%
CCn1c(-c2c(F)cc(F)cc2F)c(-n2cc(Cl)cn2)cc(I)c1=O [compound 140]	< 50%
CCn1c(-c2c(F)cc(OC)cc2F)c(-n2cc(Br)cn2)cc(Cl)c1=O [compound 72]	> 50%
CCn1c(-c2c(F)cccc2F)c(-c2cccs2)ccc1=O [compound 5]	> 50%

Shifting focus to the molecule that follows.
Entry CCn1c(-c2c(F)cc(F)cc2F)c(-c2ccnn2C)cc(Cl)c1=O [compound 20] ; pest or weed control at 250 µg/mL = > 50%

====

System: Magnaporthe grisea
Assay: whole plant or invertebrate
Format: in vivo
Conditions: Pyricularia oryzae, in Oryza sativa, read-out: control value, Test A (blast on rice)
Listing of recorded pest or weed control at 250 µg/mL by entry.

Sample answers from the record:
1) CCn1c(-c2c(F)cc(O)cc2F)c(-n2cc(Cl)cn2)cc(Cl)c1=O < 50%
2) CCn1c(-c2c(F)cc(OC(C)=O)cc2F)c(-n2cc(Cl)cn2)cc(Cl)c1=O < 50%
3) CCn1c(-c2c(F)cc(OCCOC)cc2F)c(-n2cc(Cl)cn2)cc(Cl)c1=O < 50%
4) C#Cc1cc(-n2cc(Cl)cn2)c(-c2c(F)cc(F)cc2F)n(CC)c1=O > 50%
5) CCn1c(-c2c(F)cc(F)cc2F)c(-n2cc(Cl)cn2)cc(C=O)c1=O < 50%
6) CCn1c(-c2ccc(F)cc2F)c(-n2ncc(C)c2Cl)cc(Br)c1=O > 50%
7) CCn1c(-c2c(F)cc(F)cc2F)c(-n2cc(Cl)cn2)cc(C(F)F)c1=O > 50%

Shifting focus to the compound that follows.
Entry C=CCOc1cc(F)c(-c2c(-n3cc(Cl)cn3)cc(Cl)c(=O)n2CC)c(F)c1 ; pest or weed control at 250 µg/mL = > 50%

====

Tested on: Puccinia recondita
Assay: Test Example E: Brown rust on wheat
Assay type: in vivo
Conditions: Brown rust on wheat, read-out: Test E control value
Listing of recorded pest or weed control at 250 µg/mL by entry.

1) CCn1c(-c2c(F)cc(F)cc2F)c(C2OCCCO2)cc(Cl)c1=O < 50%
2) CCn1c(-c2c(F)cccc2F)c(-c2ccc(Cl)s2)ccc1=O > 50%
3) CCn1c(-c2c(F)cc(F)cc2F)c(-n2cnc(Cl)c2Cl)ccc1=O > 50%
4) CCn1c(-c2c(F)cc(F)cc2F)c(-n2ncnc2Br)cc(Cl)c1=O > 50%
5) CCn1c(-c2c(F)cccc2F)c(-c2c[nH]cc2C#N)cc(Cl)c1=O < 50%

Entry CCn1c(-c2c(F)cccc2F)c(-c2cccnc2Cl)ccc1=O ; pest or weed control at 250 µg/mL = > 50%

Entry CCn1c(-c2c(F)cccc2F)c(-c2cccs2)ccc1=O ; pest or weed control at 250 µg/mL = > 50%

Entry CCn1c(-c2c(F)cc(F)cc2F)c(-c2c(Br)cnn2C)cc(Cl)c1=O ; pest or weed control at 250 µg/mL = > 50%

Entry CCn1c(-c2c(F)cc(OC)cc2F)c(-n2cc(Cl)cn2)cc(Cl)c1=O ; pest or weed control at 250 µg/mL = > 50%

====

Listing of recorded pest or weed control at 250 µg/mL by entry.
System: Alternaia brassicicola
Assay: Test Example C: Alternaria sooty spot on cabbage
Assay type: in vivo
Settings: Brassica oleracea; Alternaria sooty spot on cabbage; read-out: Test C control value

Molecule	pest or weed control at 250 µg/mL
CCn1c(-c2c(F)cc(F)cc2F)c(-n2cncn2)cc(Cl)c1=O [compound 34]	> 50%
CCn1c(-c2c(F)cccc2F)c(-c2ocnc2C)cc(Cl)c1=O [compound 43]	> 50%
CCn1c(-c2c(F)cc(OC)cc2F)c(-n2cc(Cl)cn2)cc(Cl)c1=O [compound 41]	> 50%
CCn1c(-c2c(F)cccc2F)c(-c2ccc(Cl)s2)ccc1=O [compound 6]	> 50%
CCn1c(-c2c(F)cccc2F)c(-c2ccc(Cl)s2)cc(Cl)c1=O [compound 7]	> 50%
CCn1c(-c2c(F)cc(F)cc2F)c(-c2ocnc2Cl)cc(Cl)c1=O [compound 112]	> 50%

Entry CCn1c(-c2c(F)cc(F)cc2F)c(-n2cc(Cl)cn2)cc(I)c1=O [compound 140] ; pest or weed control at 250 µg/mL = > 50%

Entry CCn1c(-c2c(F)cc(F)cc2F)c(-n2cc(Br)cn2)cc(Cl)c1=O [compound 70] ; pest or weed control at 250 µg/mL = > 50%

Entry CCn1c(-c2c(F)cc(F)cc2F)c(-n2cc(Cl)cn2)cc(Cl)c1=O [compound 40] ; pest or weed control at 250 µg/mL = > 50%

====

Tested on: Blumeria graminis f. sp. hordei
Test: Test Example D: Powdery mildew on barley
Type: in vivo
Details: Table 7, Test D, read-out: control value, Test D (powdery mildew on barley)
Listing of recorded pest or weed control at 250 µg/mL by entry.

Sample answers from the record:
Compound	Study target	pest or weed control at 250 µg/mL
CCn1c(-c2ccc(F)cc2F)c(-n2ncc(C)c2Cl)cc(Br)c1=O [compound 228]	Blumeria graminis f. sp. hordei	> 50%
C#CCOc1cc(F)c(-c2c(-n3cc(Cl)cn3)cc(Cl)c(=O)n2CC)c(F)c1 [compound 201]	Blumeria graminis f. sp. hordei	> 50%

Shifting focus to the compound that follows.
Entry C#Cc1cc(-n2cc(Cl)cn2)c(-c2c(F)cc(F)cc2F)n(CC)c1=O [compound 223] ; pest or weed control at 250 µg/mL = < 50%

====

Listing of recorded pest or weed control at 250 µg/mL by entry.
System: Botrytis cinerea
Assay: Test Example B: Gray mold on tomato
Assay type: in vivo
Conditions: Table 7, Test B, read-out: control value, Test B (gray mold on tomato)

Sample answers from the record:
1. CCn1c(-c2c(F)cc(O)cc2F)c(-n2cc(Cl)cn2)cc(Cl)c1=O > 50%
2. CCn1c(-c2c(F)cc(F)cc2F)c(-n2cc(Cl)cn2)cc(C)c1=O > 50%
3. CCn1c(-c2c(F)cc(F)cc2F)c(-n2cc(Cl)cn2)cc(OC)c1=O < 50%
4. C#Cc1cc(-n2cc(Cl)cn2)c(-c2c(F)cc(F)cc2F)n(CC)c1=O < 50%
5. C#CCOc1cc(F)c(-c2c(-n3cc(Cl)cn3)cc(Cl)c(=O)n2CC)c(F)c1 > 50%

Entry CCn1c(-c2c(F)cc(F)cc2F)c(-n2cc(Cl)cn2)cc(C(F)F)c1=O ; pest or weed control at 250 µg/mL = > 50%

Entry CCn1c(-c2ccc(F)cc2F)c(-n2cc(C)cn2)cc(Br)c1=O ; pest or weed control at 250 µg/mL = > 50%

====

Listing of recorded pest or weed control at 250 µg/mL by entry.
System: Puccinia recondita
Assay: Test Example E: Brown rust on wheat
Assay type: in vivo
Details: Brown rust on wheat, read-out: Test E control value

Sample answers from the record:
Compound	Study target	Parameter	Endpoint value
CCn1c(-c2c(F)cc(F)cc2F)c(-n2cc(Cl)cn2)cc(Br)c1=O [compound 71]	Puccinia recondita	pest or weed control at 250 µg/mL	> 50%
CCN1C(=O)CCC(n2cccn2)=C1c1c(F)cc(F)cc1F [compound 25]	Puccinia recondita	pest or weed control at 250 µg/mL	< 50%
CCn1c(-c2c(F)cccc2F)c(-c2ocnc2C)cc(Cl)c1=O [compound 43]	Puccinia recondita	pest or weed control at 250 µg/mL	> 50%
CCn1c(-c2c(F)cc(F)cc2F)c(-c2cnco2)cc(Cl)c1=O [compound 36]	Puccinia recondita	pest or weed control at 250 µg/mL	> 50%

Field pest or weed control at 250 µg/mL (Puccinia recondita), entry CCn1c(-c2c(F)cc(F)cc2F)c(-c2ocnc2Cl)cc(Cl)c1=O [compound 112] : > 50%
